Known inhibition at 1 µM of a selection of compounds
SUBJECT_OF_TEST: elastase (Sus scrofa)
Construct: purchased Sigma; host or cells: swine pancreas
Sequence (P00772 27-266): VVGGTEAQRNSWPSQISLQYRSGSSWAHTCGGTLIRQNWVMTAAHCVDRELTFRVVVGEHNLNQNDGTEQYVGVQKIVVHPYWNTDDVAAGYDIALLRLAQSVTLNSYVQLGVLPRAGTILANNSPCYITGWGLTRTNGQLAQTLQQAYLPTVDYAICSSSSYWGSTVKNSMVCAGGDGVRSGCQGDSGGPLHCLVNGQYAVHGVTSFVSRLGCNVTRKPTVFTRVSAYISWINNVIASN
EXPERIMENTAL_DETAILS: Determination of elastase-inhibitory activity
Format: biochemical, swine
TEST_CONTEXT: 1 μM; read-out: inhibition rate, elastase
Just the number please, in %, no unit attached.

COc1ccc(OCC(=O)[C@@H]2CCCN2C(=O)[C@@H]2CCCN2C(=O)OCC23CC4CC(CC(C4)C2)C3)cc1 [Compound 50] :: 0

Form field - read-out: inhibition at 1 µM; system: elastase (Sus scrofa); submitted item: O=C(COc1ccccc1)[C@@H]1CCCN1C(=O)[C@@H]1CSCN1C(=O)NCc1ccccc1 [Compound 51]
0

Can you handle O=C(COc1ccc(Cl)cc1)[C@@H]1CCCN1C(=O)[C@@H]1CCCN1C(=O)CCc1ccccc1 [Compound 26] next?
0

Can you handle O=C(COc1ccccc1)[C@@H]1CCCN1C(=O)[C@@H]1CCCN1C(=O)COc1ccccc1 [Compound 46] next?
0

* * *

Known inhibition at 0.1 µM of a selection of compounds
SUBJECT_OF_TEST: cathepsin B (Bos taurus)
Construct: purchased Sigma; host or cells: bovine spleen
EXPERIMENTAL_DETAILS: Determination of cathepsin B-inhibitory activity
Type: biochemical, bovine
TEST_CONTEXT: 0.1 μM; read-out: inhibition rate, cathepsin B
Just the number please, in %, no unit attached.

Consider the worked cases shown below.
COc1ccc([S+]([O-])CC(=O)[C@@H]2CCCN2C(=O)[C@@H]2CCCN2C(=O)OCc2ccccc2)cc1 (stereo partly shown) :: 20
CCOC(=O)CN(Cc1ccccc1)C(=O)N1CCC[C@H]1C(=O)N1CCC[C@H]1C(=O)COc1ccccc1 :: 0
O=C(COc1ccc(F)cc1)[C@@H]1CCCN1C(=O)[C@@H]1CCCN1C(=O)NCc1ccc(F)cc1 :: 0

Let's switch to this compound now.
Look at this compound and give its reported inhibition at 0.1 µM. O=C(COc1ccc(Cl)cc1)[C@@H]1CCCN1C(=O)[C@@H]1CCCN1C(=O)NCc1ccc(Cl)cc1
0

* * *

Known inhibition at 0.1 µM of a selection of molecules
SUBJECT_OF_TEST: prolyl endopeptidase (Rattus norvegicus)
Construct: prolyl endopeptidase extracted from rat brain; from tissue; host or cells: rat brain
EXPERIMENTAL_DETAILS: Prolyl endopeptidase-inhibitory activity
Assay type: biochemical
TEST_CONTEXT: 0.1 μM; read-out: inhibition rate, prolyl endopeptidase
Just the number please, in %, no unit attached.

Consider the worked cases shown below.
Cc1ccc([S@+]([O-])CC(=O)[C@@H]2CCCN2C(=O)[C@@H]2CCCN2C(=O)OCc2ccccc2)cc1 :: 97
O=C(COc1ccccc1)[C@@H]1CCCN1C(=O)[C@@H]1CCCN1C(=O)NCc1ccc(Cl)cc1 :: 99
COc1ccc(OCC(=O)[C@@H]2CCCN2C(=O)[C@@H]2CCCN2C(=O)OCc2ccccc2)cc1 :: 93
O=C(CS(=O)(=O)c1ccccc1)[C@@H]1CCCN1C(=O)[C@@H]1CCCN1C(=O)OCc1ccccc1 :: 91
O=C(C[S@+]([O-])c1ccccc1)[C@@H]1CCCN1C(=O)[C@@H]1CCCN1C(=O)OCc1ccccc1 :: 98
O=C(C[S@@+]([O-])c1ccccc1)[C@@H]1CCCN1C(=O)[C@@H]1CCCN1C(=O)OCc1ccccc1 :: 97
COc1ccc([S@@+]([O-])CC(=O)[C@@H]2CCCN2C(=O)[C@@H]2CCCN2C(=O)CCc2ccccc2)cc1 :: 98
CCCCCCCC(=O)N1CCC[C@H]1C(=O)N1CCC[C@H]1C(=O)COc1ccccc1 :: 97

Look at this molecule and give its reported inhibition at 0.1 µM. O=C(C[S+]([O-])c1ccccc1)[C@@H]1CCCN1C(=O)[C@@H]1CCCN1C(=O)CCCc1ccccc1 (stereo partly drawn)
98

Can you handle O=C(COc1ccc(F)cc1)[C@@H]1CCCN1C(=O)[C@@H]1CCCN1C(=O)NCc1ccc(F)cc1 next?
99

* * *

SUBJECT_OF_TEST: prolyl endopeptidase (Rattus norvegicus, UniProt O70196)
Construct: prolyl endopeptidase extracted from rat brain; from tissue; host or cells: rat brain
Sequence (O70196 whole entry): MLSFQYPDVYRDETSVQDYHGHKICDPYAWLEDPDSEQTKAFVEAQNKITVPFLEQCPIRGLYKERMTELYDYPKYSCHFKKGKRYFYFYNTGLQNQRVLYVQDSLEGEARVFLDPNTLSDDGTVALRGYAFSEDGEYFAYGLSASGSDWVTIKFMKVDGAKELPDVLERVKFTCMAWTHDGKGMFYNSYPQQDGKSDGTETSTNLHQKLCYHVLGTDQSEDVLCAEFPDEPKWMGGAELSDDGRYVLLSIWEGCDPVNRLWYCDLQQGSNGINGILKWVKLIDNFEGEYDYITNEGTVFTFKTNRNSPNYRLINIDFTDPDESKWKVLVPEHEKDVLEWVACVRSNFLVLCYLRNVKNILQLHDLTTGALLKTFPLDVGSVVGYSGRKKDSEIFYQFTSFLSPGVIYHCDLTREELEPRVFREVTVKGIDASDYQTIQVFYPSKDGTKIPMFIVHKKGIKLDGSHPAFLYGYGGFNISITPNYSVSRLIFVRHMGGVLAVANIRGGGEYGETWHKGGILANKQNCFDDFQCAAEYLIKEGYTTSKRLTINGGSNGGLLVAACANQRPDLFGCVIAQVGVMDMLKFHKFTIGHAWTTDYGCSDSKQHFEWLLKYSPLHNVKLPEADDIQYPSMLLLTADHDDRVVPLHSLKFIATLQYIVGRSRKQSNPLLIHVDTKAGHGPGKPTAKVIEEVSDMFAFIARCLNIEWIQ
EXPERIMENTAL_DETAILS: Prolyl endopeptidase-inhibitory activity
Format: biochemical
TEST_CONTEXT: 1 μM; read-out: inhibition rate, prolyl endopeptidase
METRIC: inhibition at 1 µM (%)
Just the number please, in %, no unit attached.

Consider the worked cases shown below.
COc1ccc(OCC(=O)[C@@H]2CCCN2C(=O)[C@@H]2CCCN2C(=O)CNc2ccccc2)cc1 :: 90
O=C(COc1ccccn1)[C@@H]1CCCN1C(=O)[C@@H]1CCCN1C(=O)NCc1ccccc1 :: 85
O=C(COc1ccccc1)[C@@H]1CCCN1C(=O)[C@@H]1CCCN1C(=O)CCc1ccccc1 :: 98
COc1ccc(OCC(=O)[C@@H]2CCCN2C(=O)[C@@H]2CCCN2C(=O)CCc2ccccc2)cc1 :: 96
COc1ccc(OCC(=O)[C@@H]2CCCN2C(=O)[C@@H]2CCCN2C(=O)COc2ccccc2)cc1 :: 98

Look at this molecule and give its reported inhibition at 1 µM. COc1ccc(OCC(=O)[C@@H]2CCCN2C(=O)[C@@H]2CCCN2C(=O)NCc2ccccc2)cc1
97

Can you handle CCOC(=O)[C@@H](NC(=O)N1CCC[C@H]1C(=O)N1CCC[C@H]1C(=O)COc1ccccc1)c1ccccc1 next?
96

Can you handle O=C(COc1ccccc1)[C@@H]1CCCN1C(=O)[C@@H]1CCCN1C(=O)NCc1ccccc1 next?
99

* * *

SUBJECT_OF_TEST: prolyl endopeptidase (Rattus norvegicus)
Construct: prolyl endopeptidase extracted from rat brain; from tissue; host or cells: rat brain
EXPERIMENTAL_DETAILS: Prolyl endopeptidase-inhibitory activity
Assay type: biochemical
METRIC: IC50 (nM)
Just the number please, in nM, no unit attached.

Look at this molecule and give its reported IC50. O=C(COc1ccc2c(c1)OCO2)[C@@H]1CCCN1C(=O)[C@@H]1CCCN1C(=O)NCc1ccccc1
1

* * *

SUBJECT_OF_TEST: chymotrypsin (Bos taurus)
Construct: purchased Sigma; host or cells: bovine pancreas
EXPERIMENTAL_DETAILS: Determination of chymotrypsin-inhibitory activity
Format: biochemical, bovine
TEST_CONTEXT: 1 μM; read-out: inhibition rate, chymotrypsin
METRIC: inhibition at 1 µM (%)
Just the number please, in %, no unit attached.

Consider the worked cases shown below.
O=C(COc1ccccc1)[C@@H]1CCCN1C(=O)[C@@H]1CCCN1C(=O)CCc1ccccc1 [Compound 19] :: 0
COc1ccc(OCC(=O)[C@@H]2CCCN2C(=O)[C@@H]2CCCN2C(=O)COc2ccccc2)cc1 [Compound 47] :: 0
COc1ccc(OCC(=O)[C@@H]2CCCN2C(=O)[C@@H]2CCCN2C(=O)CCc2ccccc2)cc1 [Compound 20] :: 0

Form field - read-out: inhibition at 1 µM; system: chymotrypsin (Bos taurus); submitted item: O=C(COc1ccccc1)[C@@H]1CCCN1C(=O)[C@@H]1CSCN1C(=O)NCc1ccccc1 [Compound 51]
0

Can you handle O=C(COc1ccccn1)[C@@H]1CCCN1C(=O)[C@@H]1CCCN1C(=O)NCc1ccccc1 [Compound 54] next?
0

Can you handle O=C(COc1ccc(Cl)cc1)[C@@H]1CCCN1C(=O)[C@@H]1CCCN1C(=O)CCc1ccccc1 [Compound 26] next?
0

Can you handle COc1ccc([S@+]([O-])CC(=O)[C@@H]2CCCN2C(=O)[C@@H]2CCCN2C(=O)OCc2ccccc2)cc1 [Compound 12] next?
0

Can you handle COc1ccc(OCC(=O)[C@@H]2CCCN2C(=O)[C@@H]2CCCN2C(=O)CNc2ccccc2)cc1 [Compound 48] next?
0

* * *

Known inhibition at 1 µM of a selection of compounds
SUBJECT_OF_TEST: prolyl endopeptidase (Rattus norvegicus, UniProt O70196)
Construct: prolyl endopeptidase extracted from rat brain; from tissue; host or cells: rat brain
EXPERIMENTAL_DETAILS: Prolyl endopeptidase-inhibitory activity
Format: biochemical
TEST_CONTEXT: 1 μM; read-out: inhibition rate, prolyl endopeptidase
Field: value (include unit after the number)

COc1ccc(OCC(=O)[C@@H]2CCCN2C(=O)[C@@H]2CCCN2C(=O)OCC23CC4CC(CC(C4)C2)C3)cc1 :: 97%
COc1ccc(OCC(=O)[C@@H]2CCCN2C(=O)[C@@H]2CCCN2C(=O)CSc2ccccc2)cc1 :: 98%
O=C(COc1ccc(Cl)cc1)[C@@H]1CCCN1C(=O)[C@@H]1CCCN1C(=O)CCc1ccccc1 :: 99%

Look at this compound and give its reported inhibition at 1 µM. COc1ccc([S@@+]([O-])CC(=O)[C@@H]2CCCN2C(=O)[C@@H]2CCCN2C(=O)NCc2ccccc2)cc1
99%

Can you handle COc1ccc([S@+]([O-])CC(=O)[C@@H]2CCCN2C(=O)[C@@H]2CCCN2C(=O)OCc2ccccc2)cc1 next?
92%

Can you handle O=C(COc1ccccc1)[C@@H]1CCCN1C(=O)[C@@H]1CSCN1C(=O)NCc1ccccc1 next?
98%

Can you handle O=C(COc1ccccc1)[C@@H]1CCCN1C(=O)[C@@H]1CCCN1C(=O)COc1ccccc1 next?
93%

Entry source: patent US5506256A
